# TARGET OR TEST SYSTEM: Human factor D (Homo sapiens)
# Construct: purified from human serum; purchased Complement Technology, Inc; host or cells: human serum
# ASSAY NAME: Human Factor D Assay (Factor D inhibition assay)
# Assay type: biochemical
# EXPERIMENTAL CONTEXT: pH 7.5; read-out: IC50
MEASUREMENT KIND: IC50

Observed IC50, Human factor D (Homo sapiens), NC(=O)c1nn(CC(=O)N2C[C@H](F)C[C@H]2C(=O)Nc2cccc(-c3ccccc3Cl)c2F)c2cc(C(=O)NS(=O)(=O)C3CC3)ccc12 [Compound 212] : < 1 µM

###

# TARGET OR TEST SYSTEM: Human factor D (Homo sapiens)
# Construct: purified from human serum; purchased Complement Technology, Inc; host or cells: human serum
# ASSAY NAME: Human Factor D Assay (Factor D inhibition assay)
# Type: biochemical
# EXPERIMENTAL CONTEXT: Factor D 80 nM, substrate Z-L-Lys-SBzl, DTNB, pH 7.5; read-out: IC50
pIC50: −log10 of the molar value.
Here, each record is paired with measured pIC50 data.

Please review the entries below; each comes with its answer.
[
  {
    "MOLECULE": "C=CC1C[C@]1(NC(=O)[C@@H]1C[C@@H](F)CN1C(=O)Cn1cc(C(C)=O)c2ccc(O)cc21)C(=O)NS(=O)(=O)C1CC1 (stereo partly drawn)",
    "pIC50": "5.00 to 6.00"
  },
  {
    "MOLECULE": "O=C(NCc1cccc(Cl)c1F)[C@@H]1C[C@@H](F)CN1C(=O)Cn1nc(P(=O)(O)O)c2ccncc21",
    "pIC50": "< 5.00"
  }
]

Kindly review the next molecule as well.
The measured pIC50 associated with CC(=O)c1cn(CC(=O)N2C[C@H](F)C[C@H]2C(=O)NCc2cccc(Cl)c2F)c2ccc(NC(=O)OC3CC3)cc12 reads > 6.00

###

# TARGET OR TEST SYSTEM: Human factor D (Homo sapiens, UniProt P00746)
# Construct: purified from human serum; purchased Complement Technology, Inc; host or cells: human serum
# Sequence (P00746 26-253): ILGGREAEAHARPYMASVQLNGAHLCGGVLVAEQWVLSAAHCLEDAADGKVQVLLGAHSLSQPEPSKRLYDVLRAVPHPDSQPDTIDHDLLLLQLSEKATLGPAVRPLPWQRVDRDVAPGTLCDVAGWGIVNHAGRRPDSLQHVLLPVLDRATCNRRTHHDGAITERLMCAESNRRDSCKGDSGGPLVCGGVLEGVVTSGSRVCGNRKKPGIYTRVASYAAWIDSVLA
# ASSAY NAME: Human Factor D Assay (Factor D inhibition assay)
# Type: biochemical
# EXPERIMENTAL CONTEXT: read-out: IC50
pIC50: −log10 of the molar value.
MEASUREMENT KIND: pIC50

Form field pIC50, entry CCOP(=O)(OCC)c1ccc2c(C(C)=O)cn(CC(=O)N3[C@@H]4CCC[C@@H]4C[C@H]3C(=O)NCc3cccc(Cl)c3F)c2c1 : > 6.00

###

# TARGET OR TEST SYSTEM: Human factor D (Homo sapiens)
# Construct: purified from human serum; purchased Complement Technology, Inc; host or cells: human serum
# ASSAY NAME: Human Factor D Assay (Factor D inhibition assay)
# Assay type: biochemical
# EXPERIMENTAL CONTEXT: Factor D 80 nM, substrate Z-L-Lys-SBzl, DTNB, pH 7.5; read-out: IC50
pIC50: −log10 of the molar value.
MEASUREMENT KIND: pIC50

Look over these answered cases.
[
  {
    "SMI": "CC(=O)c1nn(CC(=O)N2C[C@H](F)C[C@H]2C(=O)Nc2cccc(SC(F)(F)F)c2)c2cnccc12",
    "pIC50": "> 6.00"
  },
  {
    "SMI": "CC(=O)c1cn(CC(=O)N2CCOC[C@H]2C(=O)NCc2cccc(Cl)c2F)c2cc(C(=O)O)ccc12",
    "pIC50": "> 6.00"
  }
]

# context switch: different compound, same pIC50
// CC(=O)c1cn(CC(=O)N2C[C@H](F)C[C@H]2C(=O)NCc2cccc(Cl)c2F)c2ccc(C#Cc3cccc(OC(F)(F)F)c3F)cc12 : pIC50 value = 5.00 to 6.00
